- STUDY_SYSTEM: human CRF1 receptor (Homo sapiens)
- Construct: expressed in transfected cells; host or cells: CHO cells (membrane fraction)
- Sequence (P34998 24-415): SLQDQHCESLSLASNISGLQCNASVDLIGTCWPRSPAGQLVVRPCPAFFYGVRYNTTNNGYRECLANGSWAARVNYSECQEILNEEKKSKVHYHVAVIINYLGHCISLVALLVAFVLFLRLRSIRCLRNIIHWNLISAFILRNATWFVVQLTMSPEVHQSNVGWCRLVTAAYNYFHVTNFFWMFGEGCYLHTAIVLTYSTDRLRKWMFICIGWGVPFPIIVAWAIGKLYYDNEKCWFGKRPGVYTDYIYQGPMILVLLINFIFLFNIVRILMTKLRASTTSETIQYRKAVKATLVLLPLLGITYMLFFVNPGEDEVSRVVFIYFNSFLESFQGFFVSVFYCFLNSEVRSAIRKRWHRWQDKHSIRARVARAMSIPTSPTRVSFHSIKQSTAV
- PROCEDURE_DETAILS: Measurement of CRF binding inhibitory rate (125I-CRF receptor binding, CHO cellular membrane fraction)
- MEASUREMENT_PARAMETERS: 1.5 h, at the presence of 1 μM of a test compound; human CRF1 receptor expressing CHO cellular membrane fraction, 50 pM 125I-CRF; read-out: Binding inhibitory rates (% inhibition)
Let's look at some compounds and their measured inhibition at 1 µM.
# value in %; strip the unit string

Consider the following illustrative entries.
COMPOUND	inhibition at 1 µM / %
CCC(CC)c1ccc(Cl)c2nc3n(c12)CCCCN3c1cnc(N(C)C)cc1C	91
CCC(CCO)c1ccc(Cl)c2nc3n(c12)CCCN3c1ccc(Cl)cc1Cl (centres unmarked)	98
COc1ccc(N2CCCn3c2nc2c(Cl)ccc(C(O)(C4CC4)C4CC4)c23)c(C)n1	94
CCC(OC(C)=O)c1ccc(Cl)c2nc3n(c12)CCCN3c1ccc(OC)nc1C (racemic) [Example 265]	89
CCC(O)c1ccc(Cl)c2nc3n(c12)CCCN3c1ccc(Cl)cc1Cl (centres unmarked)	95
CCC(OC(C)=O)c1ccc(Cl)c2nc3n(c12)CCCN3c1ccc(Cl)cc1Cl (single isomer, unassigned; (-)) [Example 239]	90
Cc1cc(Cl)cc(Cl)c1N1CCn2c1nc1c(Cl)ccc(C(O)(C3CC3)C3CC3)c12	98
COc1ccc(C(O)(C2CC2)C2CC2)c2c1nc1n2CCCN1c1ccc(Cl)cc1Cl	96
CCC(OC(C)=O)c1ccc(Cl)c2nc3n(c12)CCCN3c1ccc(OC)nc1C (single isomer, unassigned; (-)) [Example 266]	82
CCN(CC)c1ccc(F)c2nc3n(c12)CCCN3c1ccc(Cl)cc1Cl	95

Okay, now this compound:
Query string: Returns the measured inhibition at 1 µM for the input compound. Input: CCC(OC(C)=O)c1ccc(Cl)c2nc3n(c12)CCCN3c1ccc(Cl)cc1Cl (racemic) [Example 238]
Result string: 98
